settings: buffer; pH 7.4; 200.0 µM
Each entry below carries its reported solubility kinetic.

Recorded results for 4 compounds are shown here.
> print(dat)
                                   compound      observed
1            S=c1nc(Cc2ccccc2)[nH]c2ccccc12     2.4 µg/mL
2  Cc1ccc(C(C[N+](=O)[O-])Sc2ccc(N)cc2)cc1 (stereo not given)    21.4 µg/mL
3      COc1cc(C)cc(CN2CCC(Cc3ccccc3)CC2)c1O    44.5 µg/mL
4  COc1cc(NC(=O)CC(C)n2ccnc2)cc(OC)c1 (stereo not given)  > 43.4 µg/mL

Incoming: Provide measured solubility kinetic value, entry: `CCN1C(=O)Nc2cccc3cccc1c23`
Outgoing: 4.9 µg/mL

Incoming: Fill in solubility kinetic for record CCC1CCCCN1C(=O)COc1ccc2c(c1)OCO2 (stereo not given)
Outgoing: > 43.7 µg/mL

Incoming: Name the recorded solubility kinetic of the item `Cn1c(=O)c2c(nc(N3CCOCC3)n2C/C=C/c2ccccc2)n(C)c1=O` in your answer.
Outgoing: 51.9 µg/mL

Incoming: Report measured solubility kinetic; entry is `COc1ccc2[nH]c(C(=O)N3CCNCC3)cc2c1OC`
Outgoing: 36.2 µg/mL
